- SYSTEM_NAME: S. aureus DNA gyrase (Staphylococcus aureus, UniProt P0A0K8+P20831)
- Construct: purchased Inspiralis, UK
- Sequence (P0A0K8 whole entry): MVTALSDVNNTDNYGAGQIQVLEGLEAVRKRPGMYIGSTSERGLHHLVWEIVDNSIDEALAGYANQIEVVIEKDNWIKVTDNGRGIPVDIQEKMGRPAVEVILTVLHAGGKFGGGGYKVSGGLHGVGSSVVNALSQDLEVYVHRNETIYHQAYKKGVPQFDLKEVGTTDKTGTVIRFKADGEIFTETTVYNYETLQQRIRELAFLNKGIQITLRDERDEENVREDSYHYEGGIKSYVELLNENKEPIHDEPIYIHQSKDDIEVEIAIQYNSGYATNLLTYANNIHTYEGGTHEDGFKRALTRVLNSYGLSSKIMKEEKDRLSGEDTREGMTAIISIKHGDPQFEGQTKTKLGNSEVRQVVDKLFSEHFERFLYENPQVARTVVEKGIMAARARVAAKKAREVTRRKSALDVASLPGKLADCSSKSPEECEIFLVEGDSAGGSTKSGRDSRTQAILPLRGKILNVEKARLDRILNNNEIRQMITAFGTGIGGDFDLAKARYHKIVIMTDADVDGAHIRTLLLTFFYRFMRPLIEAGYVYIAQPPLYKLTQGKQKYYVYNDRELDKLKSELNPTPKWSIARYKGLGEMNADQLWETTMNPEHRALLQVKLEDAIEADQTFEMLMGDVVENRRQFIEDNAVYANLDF
- Sequence (P20831 whole entry): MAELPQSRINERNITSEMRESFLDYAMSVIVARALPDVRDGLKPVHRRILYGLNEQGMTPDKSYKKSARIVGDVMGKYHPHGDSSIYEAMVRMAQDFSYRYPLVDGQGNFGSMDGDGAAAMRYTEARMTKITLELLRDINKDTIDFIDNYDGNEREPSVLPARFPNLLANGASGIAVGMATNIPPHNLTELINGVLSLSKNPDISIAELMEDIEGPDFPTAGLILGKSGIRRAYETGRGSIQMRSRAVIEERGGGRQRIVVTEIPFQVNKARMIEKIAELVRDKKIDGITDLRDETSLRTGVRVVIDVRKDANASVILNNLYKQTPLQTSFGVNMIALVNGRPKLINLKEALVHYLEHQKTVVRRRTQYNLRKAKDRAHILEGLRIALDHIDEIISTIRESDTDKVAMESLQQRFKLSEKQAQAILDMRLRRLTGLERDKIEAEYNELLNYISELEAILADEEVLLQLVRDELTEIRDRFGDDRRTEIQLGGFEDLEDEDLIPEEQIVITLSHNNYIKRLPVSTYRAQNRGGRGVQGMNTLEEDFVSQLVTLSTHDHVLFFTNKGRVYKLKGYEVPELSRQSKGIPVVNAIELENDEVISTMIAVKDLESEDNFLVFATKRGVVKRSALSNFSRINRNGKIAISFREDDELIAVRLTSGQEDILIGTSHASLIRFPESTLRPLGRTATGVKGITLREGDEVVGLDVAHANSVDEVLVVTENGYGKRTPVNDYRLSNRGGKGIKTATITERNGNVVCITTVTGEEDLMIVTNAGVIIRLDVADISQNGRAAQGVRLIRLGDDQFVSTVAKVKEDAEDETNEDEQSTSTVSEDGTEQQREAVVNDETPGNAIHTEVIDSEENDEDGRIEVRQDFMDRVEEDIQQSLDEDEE
- ASSAY_COMMENT: DNA gyrase supercoiling assay (S. aureus)
- Format: biochemical
pIC50: −log10 of the molar value. Structures can show the parent of a compound that is named as a salt.
Class (by pIC50) -- low range (below 5), mid range (5 to below 6), high range (6 or more)

Enquiry: Class? Entry: O=c1oc2ccccc2c2[nH]c(CNC3CCN(c4nccc5ccc(F)cc45)CC3)c(C(F)(F)F)c12 [Compound 153]
Return: high range

Enquiry: Also O=c1cc(NC2CCN(CCCc3nccc4ccccc34)CC2)c2ccccc2o1 [Compound 29] ?
Return: low range

Enquiry: Thanks! And COc1ccc2ncc(C#N)c(N3CCC(NCc4cc5c([nH]4)c(=O)oc4ccc(F)cc45)CC3)c2n1 [Compound 195] ?
Return: high range

Enquiry: Note, next up: O=c1oc2ccccc2c2[nH]c(C(O)CN3CCN(c4nccc5ccc(F)cc45)CC3)nc12 (stereo not drawn) [Compound 152, hydrochloride]
Return: high range

Enquiry: Next record, please: O=c1nc(NCC(O)CN2CCN(c3nccc4nccnc34)CC2)c2cc(F)ccc2o1 (stereo not drawn) [Compound 156]
Return: mid range

Enquiry: Now the compound O=c1cc(NCCCN2CCC(c3nccc4ccccc34)CC2)c2ccccc2o1 [Compound 109]
Return: low range

Others:
Enquiry: Using the reported pIC50, which band applies to O=c1cc(NCCCN2CCN(c3nccc4ccccc34)CC2)c2ccccc2o1 [Compound 44] ?
Return: low range

Enquiry: Please give the result for O=c1oc2ccc(F)cc2c2cc(CNC3CCN(c4nccc5ncccc45)CC3)[nH]c12 [Compound 187] too.
Return: high range

Enquiry: And then O=c1cc(NCCCN2CCN(c3nccc4ccc(F)cc34)CC2)c2ccccc2o1 [Compound 67] , what is it?
Return: mid range

Enquiry: Let us now turn to O=c1nc(NCC(O)CN2CCN(c3nccc4ccc(F)cc34)CC2)c2cc(F)ccc2o1 (stereo not drawn) [Compound 148]
Return: high range

Enquiry: Another compound to look at: O=c1cc(NCC(O)CN2CCN(c3nccc4ccccc34)CC2)c2ccccc2o1 (racemic) [Compound 59]
Return: mid range

Enquiry: And O=c1cc(N[C@H]2C[C@H](N3CCN(c4nccc5ccccc45)CC3)C2)c2ccccc2o1 [Compound 55] ?
Return: mid range

Enquiry: Now this one: O=c1cc(NCCCN2CCN(c3nccc4ccc(F)cc34)CC2)c2c(o1)CCOC2 [Compound 125]
Return: low range

Enquiry: Please do the same for O=c1oc2ccc(F)cc2c2cc(CNC3CCN(c4nccc5nccnc45)CC3)[nH]c12 [Compound 196] as well.
Return: high range

Enquiry: Subsequent entry: COc1ccc2ncc(F)c(N3CCC(NCc4cc5c([nH]4)c(=O)oc4ccc(F)cc45)CC3)c2n1 [Compound 192]
Return: high range

Enquiry: Check O=c1nc(NCC(O)CN2CCN(c3nccc4ncc(C(F)(F)F)cc34)CC2)c2cc(F)ccc2o1 (stereo not drawn) [Compound 163] too.
Return: low range

Enquiry: Request: O=c1nc(NCC(O)CN2CCN(c3nc(F)cc4ccc(F)cc34)CC2)c2cc(F)ccc2o1 (stereo not drawn) [Compound 149]
Return: high range

Enquiry: Then this compound: O=CNC(CN1CCN(c2nccc3ccc(F)cc23)CC1)c1nc2c(=O)oc3ccccc3c2[nH]1 (stereo not drawn) [Compound 159, hydrochloride]
Return: high range

Enquiry: Another: O=c1cc(NCCC[N+]2([O-])CCN(c3nccc4ccc(F)cc34)CC2)c2ccccc2o1 [Compound 105]
Return: mid range

Enquiry: Let us now turn to O=c1cc(NCCCN2CCN(c3nccc4ccc(Cl)cc34)CC2)c2ccccc2o1 [Compound 51]
Return: mid range

Enquiry: Okay, and COc1ccc2nccc(N3CCC(NCc4cc5c([nH]4)c(=O)oc4ccc(F)cc45)CC3)c2n1 [Compound 188] ?
Return: high range

----------
- SYSTEM_NAME: S. aureus Topoisomerase IV (Staphylococcus aureus, UniProt P0C1S7+P0C1U9)
- Construct: purchased Inspiralis, UK
- Sequence (P0C1S7 whole entry): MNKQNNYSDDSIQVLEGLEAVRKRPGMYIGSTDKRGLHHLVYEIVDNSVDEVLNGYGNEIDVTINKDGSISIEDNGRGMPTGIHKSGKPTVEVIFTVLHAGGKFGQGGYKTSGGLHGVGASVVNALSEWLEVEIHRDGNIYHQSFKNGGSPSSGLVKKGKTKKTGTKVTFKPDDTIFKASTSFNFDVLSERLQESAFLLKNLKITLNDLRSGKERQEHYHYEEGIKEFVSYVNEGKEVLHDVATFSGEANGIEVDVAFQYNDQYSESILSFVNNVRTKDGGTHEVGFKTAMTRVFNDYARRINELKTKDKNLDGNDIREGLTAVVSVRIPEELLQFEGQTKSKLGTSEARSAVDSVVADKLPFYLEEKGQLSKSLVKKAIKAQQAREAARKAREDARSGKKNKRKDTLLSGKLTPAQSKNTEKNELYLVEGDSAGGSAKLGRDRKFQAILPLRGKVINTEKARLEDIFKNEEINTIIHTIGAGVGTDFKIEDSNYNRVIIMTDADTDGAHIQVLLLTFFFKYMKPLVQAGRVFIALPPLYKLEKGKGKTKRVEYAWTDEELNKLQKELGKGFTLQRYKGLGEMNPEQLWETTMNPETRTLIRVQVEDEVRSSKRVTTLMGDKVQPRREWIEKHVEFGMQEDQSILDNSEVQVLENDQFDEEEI
- Sequence (P0C1U9 whole entry): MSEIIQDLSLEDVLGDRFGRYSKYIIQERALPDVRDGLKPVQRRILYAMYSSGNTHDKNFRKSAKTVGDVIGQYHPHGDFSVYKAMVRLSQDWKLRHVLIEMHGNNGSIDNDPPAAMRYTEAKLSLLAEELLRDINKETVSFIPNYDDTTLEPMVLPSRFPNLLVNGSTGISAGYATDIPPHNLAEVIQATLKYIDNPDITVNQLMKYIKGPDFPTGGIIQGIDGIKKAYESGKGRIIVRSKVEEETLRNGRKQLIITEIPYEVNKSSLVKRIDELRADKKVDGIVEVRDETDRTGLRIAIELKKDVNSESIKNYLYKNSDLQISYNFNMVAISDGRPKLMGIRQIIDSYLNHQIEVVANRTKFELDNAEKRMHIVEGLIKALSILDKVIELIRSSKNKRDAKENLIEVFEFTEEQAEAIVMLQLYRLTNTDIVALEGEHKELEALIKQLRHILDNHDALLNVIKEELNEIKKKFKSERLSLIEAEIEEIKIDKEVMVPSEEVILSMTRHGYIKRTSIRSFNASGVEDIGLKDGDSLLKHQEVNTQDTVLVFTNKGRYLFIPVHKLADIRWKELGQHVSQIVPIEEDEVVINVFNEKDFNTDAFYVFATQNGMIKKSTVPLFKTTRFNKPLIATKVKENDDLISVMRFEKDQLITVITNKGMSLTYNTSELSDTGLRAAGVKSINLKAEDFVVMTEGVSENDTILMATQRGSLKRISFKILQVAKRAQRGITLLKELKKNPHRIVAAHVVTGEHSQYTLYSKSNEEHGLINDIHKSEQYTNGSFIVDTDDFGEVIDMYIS
- ASSAY_COMMENT: Topoisomerase IV decatenation assay (S. aureus)
- Assay type: biochemical
- CONDITIONS: S. aureus; concentration-response curve, eight half-log concentrations 0.1 to 300 μM; read-out: IC50 Topo IV
- Experimental: The above compounds were tested for the inhibition of the enzyme DNA gyrase in a gyrase supercoiling assay and for the inhibition of the enzyme topoisomerase IV in a decatenation assay, in both Gram positive and Gram negative bacteria, according to the following methods. […] Inhibitory activity was expressed as percent of inhibition versus the positive control. The supercoiled or decatenated DNA bands obtained as described in Example 1 were analysed as follows. […]
Where a name gives a salt, the structure may show the parent alone.
Kindly supply the reported IC50 values for the records listed here.
Answers are plain numbers, in nM.

Enquiry: Recorded IC50 of O=c1nc(NCC(O)CN2CCN(c3nc(F)cc4ccc(F)cc34)CC2)c2cc(F)ccc2o1 (stereo not drawn) , please.
Return: 40

Enquiry: Note, next up: NC(CN1CCN(c2nccc3ccc(F)cc23)CC1)c1nc2c(=O)oc3ccccc3c2[nH]1 (stereo not drawn) [Compound 158, hydrochloride]
Return: 2130

// next entry
Enquiry: Name the recorded IC50 for O=c1nc(NCC(O)CN2CCN(c3nccc4ncc(C(F)(F)F)cc34)CC2)c2cc(F)ccc2o1 (stereo not drawn) .
Return: 1220

----------
- SYSTEM_NAME: S. aureus DNA gyrase (Staphylococcus aureus, UniProt P0A0K8+P20831)
- Construct: purchased Inspiralis, UK
- ASSAY_COMMENT: DNA gyrase supercoiling assay (S. aureus)
- Type: biochemical
- CONDITIONS: S. aureus; conc. 50 μM; n/a = not active
Where a name gives a salt, the structure may show the parent alone.
REPORTED_ENDPOINT: inhibition at 50 µM (%)
Answers are plain numbers, in %.

Enquiry: Requested read-out: inhibition at 50 µM. Entry: O=c1nc(NCC(O)CN2CCN(c3nccc4nccnc34)CC2)c2cc(F)ccc2o1 (stereo not shown) [Compound 156]
Return: 89

Return reported inhibition at 50 µM values for all items listed beneath this line.
1. O=c1oc2ccccc2c2[nH]c(CNC3CCN(c4nccc5ccc(F)cc45)CC3O)cc12 (stereo not shown) [Compound 186]
2. O=c1oc2ccccc2c2[nH]c(CNC3CCN(c4nccc5ccc(F)cc45)CC3F)cc12 (stereo not shown) [Compound 172]
3. COC1CN(c2nccc3ccc(F)cc23)CCC1NCc1cc2c(=O)oc3ccccc3c2[nH]1 (stereo not shown) [Compound 171]
4. CCOC(=O)C1CN(c2nccc3ccc(F)cc23)CCC1NCc1cc2c(=O)oc3ccccc3c2[nH]1 (racemic) [Compound 184]
5. O=c1cc(NCCCN2CCN(c3nccc4ccc(F)cc34)CC2)c2c(o1)CCOC2 [Compound 125]
6. COc1ccc2nccc(N3CCC(NCc4cc5c([nH]4)c(=O)oc4ccc(F)cc45)CC3)c2n1 [Compound 188]
7. C[N+]1(CCCNc2cc(=O)oc3ccccc23)CCN(c2nccc3ccccc23)CC1 [Compound 124]
8. NC(CN1CCN(c2nccc3ccc(F)cc23)CC1)c1nc2c(=O)oc3ccccc3c2[nH]1 (stereo not shown) [Compound 158, hydrochloride]

Return:
100
64
100
83
89
97
75
100

Would you mind giving inhibition at 50 µM for every compound in the list below?
1. O=c1oc2ccccc2c2[nH]c(CNC3CCN(c4nccc5ccc(F)cc45)CC3)c(C(F)(F)F)c12 [Compound 153]
2. O=c1cc(NCCNC2CCN(c3nccc4ccc(F)cc34)CC2)c2cc(F)ccc2o1 [Compound 131]
3. COc1cnc2ccnc(N3CCC(NCc4cc5c([nH]4)c(=O)oc4ccc(F)cc45)CC3)c2n1 [Compound 199]

Return:
100
81
92

Answer for every listed entry: what is its inhibition at 50 µM? The entries follow.
1. COc1ccc2ncc(C#N)c(N3CCC(NCc4cc5c([nH]4)c(=O)oc4ccc(F)cc45)CC3)c2n1 [Compound 195]
2. O=c1oc2ccccc2c2[nH]c(CNC3CCN(c4nccc5ccc(F)cc45)CC3)cc12 [Compound 145]
3. O=c1oc2ccc(F)cc2c2cc(CNC3CCN(c4nccc5nccnc45)CC3)[nH]c12 [Compound 196]
4. O=c1oc2ccccc2c2[nH]c(CCCN3CCN(c4nccc5ccc(F)cc45)CC3)nc12 [Compound 147]

Return:
1: 100; 2: 97; 3: 83; 4: 85

----------
- SYSTEM_NAME: S. aureus DNA gyrase (Staphylococcus aureus, UniProt P0A0K8+P20831)
- Construct: purchased Inspiralis, UK
- ASSAY_COMMENT: DNA gyrase supercoiling assay (S. aureus)
- Format: biochemical
- CONDITIONS: S. aureus; conc. 50 μM; n/a = not active
Structures can show the parent of a compound that is named as a salt.
REPORTED_ENDPOINT: inhibition at 50 µM (%)
One number for each entry, in %.

Consider the following illustrative entries.
Enquiry: Record lookup: for S. aureus DNA gyrase (Staphylococcus aureus, UniProt P0A0K8+P20831), what inhibition at 50 µM belongs to O=c1nc(NCC(O)CN2CCN(c3nccc4ccc(F)cc34)CC2)c2cc(F)ccc2o1 (stereo not shown) ?
Return: 100

Enquiry: Another compound: O=c1oc2ccccc2c2[nH]c(CNC3CCN(c4nccc5ccc(F)cc45)CC3)nc12
Return: 93

Enquiry: Okay, and O=CNC(CN1CCN(c2nccc3ccc(F)cc23)CC1)c1nc2c(=O)oc3ccccc3c2[nH]1 (stereo not shown) [Compound 159, hydrochloride] ?
Return: 100

Enquiry: What would you report for CC1CN(c2nccc3ccc(F)cc23)CCC1NCc1cc2c(=O)oc3ccccc3c2[nH]1 (stereo not shown) ?
Return: 98

Your task in this section: give inhibition at 50 µM for each listed record.
1. O=c1oc2ccccc2c2[nH]c(CCN3CCN(c4nccc5ccc(F)cc45)CC3)nc12
2. O=c1cc(CC(O)CCN2CCN(c3nccc4ccc(F)cc34)CC2)c2ccccc2o1 (stereo not shown)
3. O=c1oc2ccc(F)cc2c2cc(CNC3CCN(c4nccc5ncccc45)CC3)[nH]c12

Return:
1. 89
2. 71
3. 95
